- Assayed system: T1, gp130-Fc (Homo sapiens, UniProt P40189)
- T1 construct: DNA encoding the extracellular domain of human gp130 was amplified; made in house; host or cells: insect cells (Bac-to-Bac baculovirus) for gp130-Fc; E. coli BLR-DE3 for OSM
- T1 sequence (P40189 23-619 limits assumed): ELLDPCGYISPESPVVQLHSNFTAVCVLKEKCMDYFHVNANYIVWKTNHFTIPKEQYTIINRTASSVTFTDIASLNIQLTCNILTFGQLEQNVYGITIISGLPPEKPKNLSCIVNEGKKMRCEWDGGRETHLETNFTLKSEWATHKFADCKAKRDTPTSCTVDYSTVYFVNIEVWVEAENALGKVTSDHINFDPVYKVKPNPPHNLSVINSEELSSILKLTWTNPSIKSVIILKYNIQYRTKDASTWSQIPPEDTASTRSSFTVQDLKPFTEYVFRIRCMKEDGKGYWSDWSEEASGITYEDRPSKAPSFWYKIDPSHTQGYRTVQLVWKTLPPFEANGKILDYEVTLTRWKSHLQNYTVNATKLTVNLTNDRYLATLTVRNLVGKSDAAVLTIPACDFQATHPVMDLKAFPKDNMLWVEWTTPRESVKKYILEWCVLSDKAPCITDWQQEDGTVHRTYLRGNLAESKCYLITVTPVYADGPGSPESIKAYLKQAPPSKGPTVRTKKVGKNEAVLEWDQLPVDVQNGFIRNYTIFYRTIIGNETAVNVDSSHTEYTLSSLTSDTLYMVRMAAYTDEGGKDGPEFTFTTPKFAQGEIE
- Assay: Competition of OSM-GST with plate-bound wild type OSM for binding to gp130-Fc (ELISA)
- Protocol: Nunc Immunoplates (F6 Maxisorp, Life Technologies) were coated overnight (4° C.) with wild type OSM (produced according to Example 7a); 50 μl/well, 1 μg/ml in carbonate/bicarbonate buffer pH 9.4). […] Following a 5 h incubation (room temperature on a shaking platform) the plates were washed (×6) and developed using ELISA Amplification System (Life Technologies) as manufacturer's instructions and the OD measured at 490 nm. […]
Recorded metric: ability to compete with wt OSM for gp130 binding

{"columns": ["Molecule", "Obs value"],
 "data": [
  ["(6) L13A: OSM-GST fusion, alanine for Leu 13 (protein) AAIGSCSKEYRVALGQLQKQTDLMQDTSRLLDPYIRIQGLDVPKLREHCRERPGAFPSEETLRGLGRRGFLQTLNATLGCVLHRLADLEQRLPKAQDLERSGLNIEDLEKLQMARPNILGLRNNIYCMAQLLDNSDTAEPTKAGRGASQPPTPTPASDAFQRKLEGCRFLHGYHRFMHSVGRVFSKWGESPNRSRR", "substantial decrease"],
  ["(13) Q20A: OSM-GST fusion, alanine for Gln 20 (protein, left off: a dimerising Fc or GST; large carriers; small tags and cut ends) AAIGSCSKEYRVLLGQLQKATDLMQDTSRLLDPYIRIQGLDVPKLREHCRERPGAFPSEETLRGLGRRGFLQTLNATLGCVLHRLADLEQRLPKAQDLERSGLNIEDLEKLQMARPNILGLRNNIYCMAQLLDNSDTAEPTKAGRGASQPPTPTPASDAFQRKLEGCRFLHGYHRFMHSVGRVFSKWGESPNRSRR", "substantial decrease"]
]}
